Cited source: patent EP4786492A1

For each record, write down the corresponding Emax of OD450 nm binding value.
- target: T1, human DLL1 protein (human, UniProt O00548 18-540, limits assumed)
- T1 construct: bought protein; construct and tag not described; also called hDLL1
- T1 sequence (looked up): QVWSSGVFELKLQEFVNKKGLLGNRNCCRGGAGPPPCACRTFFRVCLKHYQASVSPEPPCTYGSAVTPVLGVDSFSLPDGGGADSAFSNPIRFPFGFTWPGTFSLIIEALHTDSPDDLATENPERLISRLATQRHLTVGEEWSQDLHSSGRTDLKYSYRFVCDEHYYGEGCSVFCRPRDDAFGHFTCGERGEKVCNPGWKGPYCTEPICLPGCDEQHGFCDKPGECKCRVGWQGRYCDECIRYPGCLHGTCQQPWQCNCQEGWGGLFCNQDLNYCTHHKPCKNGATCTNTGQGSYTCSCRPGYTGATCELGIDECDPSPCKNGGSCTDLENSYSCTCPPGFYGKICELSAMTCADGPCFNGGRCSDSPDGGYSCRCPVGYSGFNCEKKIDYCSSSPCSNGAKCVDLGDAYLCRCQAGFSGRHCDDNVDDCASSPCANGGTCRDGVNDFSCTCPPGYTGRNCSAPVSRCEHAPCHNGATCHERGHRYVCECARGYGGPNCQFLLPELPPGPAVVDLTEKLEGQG
- assay overview: ELISA, maximum over 0.1-100 nM
Hi! Could you send only the number? It should be in OD450, unit omitted.

Q: Sample mab003 scFv-hFc (Fc fusion, human-murine chimeric scFv-hFc, VL-linker-VH-human IgG1 Fc; not shown: linker; Fc fragment of human IgG1) scFv (part 1 of 2): DVQITQSPSYLAASPGETITINCRASKSISKYLAWYQEKPGKTNKLLIYSGSTLHSGIPSRFSGSGSGTDFTLTISSLEPEDFAIYYCQQHNEYPLTFGGGTKLELK scFv (part 2 of 2): QVQLQQSGTELMKPGASVKLSCKATGYTFTGNWIEWVKQRPGHGLEWIGEILPGTGSTQYNEKFKGKATFTADPSSNTAYMQLSSLTTEDSAIYYCARWGSTVVAYDYWGQGTTLTVSS — what was its Emax of OD450 nm binding value?
A: 0.06

Q: Would you kindly share the measured Emax of OD450 nm binding value for mab005 scFv-hFc (Fc fusion, human-murine chimeric scFv-hFc, VL-linker-VH-human IgG1 Fc; not shown: linker; Fc fragment of human IgG1) scFv (part 1 of 2): DIVLTQSPATLSVTPGDSVSLSCRASQSVSNDLHWYQQKSHESPRLLIKYASQSISGIPSRFSGSGSGTDFTLTINSVETEDFGMYFCQQSNNWPYTFGGGTKLEMK scFv (part 2 of 2): QVQLQQSGAELMKPGASVTLSCKATGYTLPGYWIEWVKQRPGHGLEWIGEILPGSSSANYNEKFKGKATFTADTSSNTAYMQLSSLTTEDSAIYYCASTYGTSLDYWGQGTTLTVSS ?
A: 0.05
